# Test system: HL-60(TB) leukemia
# assay: NCI tumour cell line growth inhibition, 48 h; in the data active = GI50 below about 0.43 µM; inactive = the rest
Output constraint: value belongs to Y (active), N (inactive)

>  <molecule>
CCN1C(=O)N(CC)C2C1NN=c1s/c(=C\c3cccc([N+](=O)[O-])c3)c(=O)n12 (stereo not given)

>  <group>
Y

$$$$

# next molecule below
Query :: Call for entry `CCN(Cc1cccc(F)c1F)c1ccc(CO)c(Cl)c1` :
Result :: N

----------
# Tested on: ACHN renal
# assay: NCI tumour cell line growth inhibition, 48 h
recorded_metric: TGI (µM)
All answers are understood in µM, so give the number only.

// below: answered compounds
>  <compound>
CCCCN1CCN(c2ccc3nc(-c4ccc5nc(-c6ccc(OCC)c(OCC)c6)[nH]c5c4)[nH]c3c2)CC1

>  <TGI [µM]>
2.12

$$$$
>  <compound>
CCCCc1c2c(nc3c1CC/C(=C\c1ccc([N+](=O)[O-])cc1)C3=O)CCCC2

>  <TGI [µM]>
3.28

$$$$

As a next step, examine the compound that follows.
Query :: Field request: TGI | item: `Cc1cc(S(N)(=O)=O)c(S/C(=N\Nc2ccc([N+](=O)[O-])cc2)c2ccc3ccccc3c2)cc1Cl`
Result :: 30.7

Recorded values, source PubChem BioAssay (NCI).
